These data points were gathered from ChEMBL document CHEMBL1201862.

# Tested on: DMS-273
# MEASUREMENT_NOTES: NCI tumour cell line growth inhibition, 48 h
Activity calls are given as the source filed them. Cut-off read from the data, not from the text of the source: active = GI50 up to about 1.1 µM and inactive = higher.
Consider the following compounds and their measured GI50 readings.

>  <COMPOUND>
O=c1c(-c2cccc3ccccc23)c(-c2cccc3ccccc23)c1=O

>  <EXPERIMENTAL_SYSTEM>
DMS-273

>  <GI50>
1.71 µM (inactive)

$$$$
>  <COMPOUND>
CCOC(=O)c1cnc2cc3cccccc3n2c1=O

>  <EXPERIMENTAL_SYSTEM>
DMS-273

>  <GI50>
31.8 µM (inactive)

$$$$
>  <COMPOUND>
NC(=O)OCC(COc1ccc(Cl)cc1)OC(=O)c1ccccc1Cl (stereo not given)

>  <EXPERIMENTAL_SYSTEM>
DMS-273

>  <GI50>
20.5 µM (inactive)

$$$$
>  <COMPOUND>
O=C(CC1(O)C(=O)Nc2c(Cl)cc(Cl)cc21)c1cccc([N+](=O)[O-])c1 (stereo not given)

>  <EXPERIMENTAL_SYSTEM>
DMS-273

>  <GI50>
39.4 µM (inactive)

$$$$
>  <COMPOUND>
CC(C)(C)[C@H]1CC[C@@](O)(c2ccccc2)CC1.CC(C)(C)[C@H]1CC[C@](O)(c2ccccc2)CC1

>  <EXPERIMENTAL_SYSTEM>
DMS-273

>  <GI50>
15.3 µM (inactive)

$$$$
>  <COMPOUND>
COc1ccc2oc(C(=O)O)c3c2c1CCC3

>  <EXPERIMENTAL_SYSTEM>
DMS-273

>  <GI50>
> 100 µM (inactive)

$$$$
>  <COMPOUND>
Cc1ncc(CCl)c(CCl)c1O

>  <EXPERIMENTAL_SYSTEM>
DMS-273

>  <GI50>
> 100 µM (inactive)

$$$$
>  <COMPOUND>
O=C1CCCC2COc3ccc(O)c1c32 (stereo not given)

>  <EXPERIMENTAL_SYSTEM>
DMS-273

>  <GI50>
> 100 µM (inactive)

$$$$
>  <COMPOUND>
CCC(CC)n1cc(C(=O)NC(=O)NCCCCCOC(=O)CCCCCCCCCCC(=O)OCCCCCNC(=O)NC(=O)c2cn(C(CC)CC)c(=O)[nH]c2=O)c(=O)[nH]c1=O

>  <EXPERIMENTAL_SYSTEM>
DMS-273

>  <GI50>
> 100 µM (inactive)

$$$$
>  <COMPOUND>
O=C1c2ccccc2CC1C1(O)C(=O)Nc2ccccc21 (stereo not given)

>  <EXPERIMENTAL_SYSTEM>
DMS-273

>  <GI50>
> 100 µM (inactive)

$$$$
